experiment: hydrolysis of 48b by α-galactosidase (HPLC); type: biochemical, [550, 552, 554]; conditions: placental alpha-galactosidase; α-galactosidase from human placenta, 0.075M N-acetylgalactosamine, 37° C., pH 5 (0.02M phosphate buffer); read-out: half-life of hydrolysis of the glycoside (converted)
ATTRIBUTE_MEASURED: half-life (h)

COc1cccc2c1C(=O)c1c(O)c3c(c(O)c1C2=O)C[C@@](O)(C(C)=O)C[C@@H]3O[C@H]1C[C@H](NC(=O)OCc2cc([N+](=O)[O-])ccc2O[C@H]2O[C@H](CO)[C@H](O)[C@H](O)[C@H]2O)[C@H](O)[C@H](C)O1 [derivative 48b] | 1

---

experiment: cleavability of glycosylated prodrugs by α-galactosidase from coffee beans (reversed-phase HPLC); type: biochemical, [595, 596, 597]; conditions: alpha-galactosidase; time for cleavage of 50% of the glycoside; 37° C., 1 U/ml, pH 7.2 to 6.8; read-out: t1/2 cleavage of the glycoside (converted)
ATTRIBUTE_MEASURED: half-life (min)

COc1cccc2c1C(=O)c1c(O)c3c(c(O)c1C2=O)C[C@@](O)(C(C)=O)C[C@@H]3O[C@H]1C[C@H](NC(=O)OCc2ccc(O[C@H]3O[C@H](CO)[C@H](O)[C@H](O)[C@H]3O)c(Cl)c2)[C@H](O)[C@H](C)O1 [derivative 60] | 1.2

---

assay: cleavability of glycosylated prodrugs by recombinant β-glucuronidase (reversed-phase HPLC); conditions: time for conversion of 50% of the anthracycline/arm compound to active anthracycline; 37° C., 1 U/ml, pH 7.2 to 6.8
This section presents compounds with their documented t1/2 arm values.
ATTRIBUTE_MEASURED: t1/2 arm

COc1cc(O[C@@H]2O[C@H](C(=O)O)[C@@H](O)[C@H](O)[C@H]2O)c(COC(=O)N[C@H]2C[C@H](O[C@H]3C[C@](O)(C(C)=O)Cc4c(O)c5c(c(O)c43)C(=O)c3c(OC)cccc3C5=O)O[C@@H](C)[C@H]2O)cc1[N+](=O)[O-] [derivative 68c] | 0,75 h
COc1cccc2c1C(=O)c1c(O)c3c(c(O)c1C2=O)C[C@@](O)(C(C)=O)C[C@@H]3O[C@H]1C[C@H](NC(=O)OCc2ccc(O[C@@H]3O[C@H](C(=O)O)[C@@H](O)[C@H](O)[C@H]3O)c([N+](=O)[O-])c2)[C@H](O)[C@H](C)O1 [derivative 64c] | < 0,08 h
COc1cccc2c1C(=O)c1c(O)c3c(c(O)c1C2=O)C[C@@](O)(C(C)=O)C[C@@H]3O[C@H]1C[C@H](NC(=O)OCc2cc(Cl)ccc2O[C@@H]2O[C@H](C(=O)O)[C@@H](O)[C@H](O)[C@H]2O)[C@H](O)[C@H](C)O1 [derivative 82c] | 12,00 h
COc1cccc2c1C(=O)c1c(O)c3c(c(O)c1C2=O)C[C@@](O)(C(C)=O)C[C@@H]3O[C@H]1C[C@H](NC(=O)OCc2cc([N+](=O)[O-])ccc2O[C@@H]2O[C@H](C(=O)O)[C@@H](O)[C@H](O)[C@H]2O)[C@H](O)[C@H](C)O1 [derivative 54c] | 5,30 h

---

assay: cleavability of glycosylated prodrugs by recombinant β-glucuronidase (reversed-phase HPLC); details: beta-glucuronidase
Below, each entry is listed with its recorded half-life.
ATTRIBUTE_MEASURED: half-life

COc1cccc2c1C(=O)c1c(O)c3c(c(O)c1C2=O)C[C@@](O)(C(C)=O)C[C@@H]3O[C@H]1C[C@H](NC(=O)OCc2ccc(O[C@@H]3O[C@H](C(=O)O)[C@@H](O)[C@H](O)[C@H]3O)c([N+](=O)[O-])c2)[C@H](O)[C@H](C)O1 [derivative 64c] | 0.42 h
COc1cccc2c1C(=O)c1c(O)c3c(c(O)c1C2=O)C[C@@](O)(C(C)=O)C[C@@H]3O[C@H]1C[C@H](NC(=O)OCc2cc(Cl)ccc2O[C@@H]2O[C@H](C(=O)O)[C@@H](O)[C@H](O)[C@H]2O)[C@H](O)[C@H](C)O1 [derivative 82c] | 4.06 h
COc1cccc2c1C(=O)c1c(O)c3c(c(O)c1C2=O)C[C@@](O)(C(C)=O)C[C@@H]3O[C@H]1C[C@H](NC(=O)OCc2cc([N+](=O)[O-])ccc2O[C@@H]2O[C@H](C(=O)O)[C@@H](O)[C@H](O)[C@H]2O)[C@H](O)[C@H](C)O1 [derivative 54c] | 0.69 h
COc1cc(O[C@@H]2O[C@H](C(=O)O)[C@@H](O)[C@H](O)[C@H]2O)c(COC(=O)N[C@H]2C[C@H](O[C@H]3C[C@](O)(C(C)=O)Cc4c(O)c5c(c(O)c43)C(=O)c3c(OC)cccc3C5=O)O[C@@H](C)[C@H]2O)cc1[N+](=O)[O-] [derivative 68c] | 1.88 h
